Listing of recorded IC50 by entry.
# Experimental system: FP receptors (Bos taurus, UniProt P37289)
# Sequence (P37289 whole entry): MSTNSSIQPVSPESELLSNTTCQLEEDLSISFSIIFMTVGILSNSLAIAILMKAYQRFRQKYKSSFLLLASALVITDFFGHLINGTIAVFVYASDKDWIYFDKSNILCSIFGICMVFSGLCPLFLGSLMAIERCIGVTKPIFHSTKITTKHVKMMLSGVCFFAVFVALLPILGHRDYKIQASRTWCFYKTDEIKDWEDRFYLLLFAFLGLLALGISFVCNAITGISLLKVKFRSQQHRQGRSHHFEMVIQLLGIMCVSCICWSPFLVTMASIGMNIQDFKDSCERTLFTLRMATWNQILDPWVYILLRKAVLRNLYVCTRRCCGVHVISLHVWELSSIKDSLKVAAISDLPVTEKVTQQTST
Quantity kind: IC50

>>> result("O=C(O)CCC/C=C\\C[C@H]1CC[C@@H](O)[C@@H]1CC[C@@H](O)C1Cc2ccccc2C1")
"1900 nM"
>>> result("O=C(O)CCC/C=C\\C[C@@H]1[C@@H](CC[C@@H](F)COc2ccccc2)[C@H](O)C[C@@H]1O")
"52 nM"
>>> result("O=C(O)CCC/C=C\\C[C@H]1[C@@H](O)CO[C@@H]1/C=C/[C@H](O)COc1cccc(C(F)(F)F)c1")
"15000 nM"
>>> result("O=C(O)CC/C=C\\CC[C@H]1[C@@H](O)CO[C@@H]1/C=C/[C@@H](O)COc1cccc(Cl)c1")
"430 nM"
>>> result("O=C(O)CCC/C=C\\C[C@H]1CC[C@@H](O)[C@@H]1/C=C/[C@@H](O)COc1cccc(Cl)c1")
"10 nM"
>>> result("O=C(O)CCC/C=C\\C[C@@H]1C(C#C[C@H](O)COc2cccc(Cl)c2)OC[C@@H]1O (stereo partly drawn)")
"36000 nM"
>>> result("O=C(O)CCC/C=C\\C[C@H]1[C@@H](O)CO[C@@H]1/C=C/[C@@H](O)COc1ccc(F)cc1")
"1400 nM"
>>> result("O=C(O)CCC/C=C\\C[C@@H]1[C@@H](OC[C@H](O)COc2cccc(Cl)c2)[C@H](O)C[C@@H]1O")
"4340 nM"
>>> result("O=C(O)CCC/C=C\\C[C@@H]1[C@@H](/C=C/[C@@H](F)COc2ccccc2)[C@H](O)C[C@@H]1O")
"267 nM"
>>> result("O=C(O)CCCCCC[C@H]1C(=O)CO[C@@H]1/C=C/[C@H](O)COc1ccccc1")
"78000 nM"
>>> result("O=C(O)CCC/C=C\\C[C@H]1[C@@H](O)CO[C@@H]1/C=C/[C@@H](O)COc1cccc(Cl)c1")
"890 nM"
>>> result("O=C(O)CCC/C=C\\C[C@@H]1[C@@H](OC[C@@H](O)COc2cccc(Cl)c2)[C@H](O)C[C@@H]1O")
"540 nM"

====

# Experimental system: FP receptors (Swiss 3T3 cells expressing FP receptors) (Mus musculus, UniProt P43117)
# Construct: endogenous in cells; host or cells: Swiss 3T3 cells
# Sequence (P43117 whole entry): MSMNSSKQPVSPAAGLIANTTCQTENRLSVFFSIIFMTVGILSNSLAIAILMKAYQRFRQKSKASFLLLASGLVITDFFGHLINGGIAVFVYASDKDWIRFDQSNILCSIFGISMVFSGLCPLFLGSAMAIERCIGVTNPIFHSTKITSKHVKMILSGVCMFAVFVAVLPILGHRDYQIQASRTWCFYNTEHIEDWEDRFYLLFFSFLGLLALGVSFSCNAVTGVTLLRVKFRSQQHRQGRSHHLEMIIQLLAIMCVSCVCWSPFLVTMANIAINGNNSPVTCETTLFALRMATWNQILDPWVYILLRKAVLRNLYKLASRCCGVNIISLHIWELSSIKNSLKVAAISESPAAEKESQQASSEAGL
# Protocol notes: FP receptor-mediated phosphoinositide turnover assay
# Format: cell-based
# Measurement context: Table 2; [3H]-IPs in Swiss 3T3 cells; read-out: EC50
Lab note: anything with EC50 below 10 nM is marked True; values at 10 nM or higher are marked False.

>>> qualitative_label("O=C(O)CCCCCC[C@@H]1[C@@H](CC[C@@H](O)COc2cccc(Cl)c2)[C@H](O)C[C@@H]1O")
"False"
>>> qualitative_label("O=C(O)CCC/C=C\\C[C@@H]1[C@@H](CC[C@H](O)COc2cccc(Cl)c2)[C@H](O)C[C@@H]1O")
"False"
>>> qualitative_label("O=C(O)CCC/C=C/C[C@@H]1[C@@H](/C=C/[C@@H](O)COc2cccc(C(F)(F)F)c2)[C@H](O)C[C@@H]1O")
"False"
>>> qualitative_label("O=C(O)CCCCCC[C@@H]1[C@@H](/C=C/[C@@H](O)COc2cccc(Cl)c2)[C@H](O)C[C@@H]1O")
"True"
>>> qualitative_label("O=C(O)CCC/C=C\\C[C@@H]1[C@@H](/C=C/[C@@H](O)COc2cccc(Cl)c2)[C@H](O)C[C@@H]1O")
"True"
>>> qualitative_label("O=C(O)CCC/C=C\\C[C@@H]1[C@@H](/C=C/[C@H](O)COc2cccc(C(F)(F)F)c2)[C@H](O)C[C@@H]1O")
"False"
>>> qualitative_label("O=C(O)CCCCCC[C@@H]1[C@@H](/C=C/[C@H](O)COc2cccc(Cl)c2)[C@H](O)C[C@@H]1O")
"False"
>>> qualitative_label("O=C(O)CCC/C=C\\C[C@@H]1[C@@H](/C=C/[C@@H](O)COc2cccc(C(F)(F)F)c2)[C@H](O)C[C@@H]1O")
"True"
>>> qualitative_label("O=C(O)CCC/C=C\\C[C@@H]1[C@@H](CC[C@@H](O)COc2cccc(Cl)c2)[C@H](O)C[C@@H]1O")
"True"
